# Tested on: Blood
# assayExplanation: Antiinflammatory activity in human whole blood assessed as inhibition of IL-1-beta-stimulated IL6 production preincubated 2 hrs before IL1-beta challenge measured after 22 hrs by ELISA
# Format: functional, tissue-based
property: IC50 (nM)
Give your result in nM as a bare value.

Form: item CCOC(=O)[C@]1(c2ccccc2)N=C(c2ccccc2)N(Cc2ccccc2)[C@@H]1c1ccccc1 (racemic) ; test system Blood; IC50: 2500

----------
For each record, write down the corresponding CC50 at 24 h.
# assayExplanation: Cytotoxicity against human 184B5 cells after 24 hrs by MTS assay
# Assay type: cell-based

Kindly note the recorded CC50 at 24 h for CCOC(=O)[C@]1(c2ccccc2)N=C(c2ccccc2)N(Cc2ccccc2)[C@@H]1c1ccc(Cl)cc1 (racemic) , which is > 10 µM

What the record says about CCOC(=O)[C@]1(c2ccccc2)N=C(c2ccccc2)N(Cc2ccccc2)[C@@H]1c1ccncc1 (racemic) : CC50 at 24 h is > 10 µM

CC50 at 24 h measured on CCOC(=O)[C@]1(c2ccccc2)N=C(c2ccccc2)N(Cc2ccco2)[C@@H]1c1ccccc1 (racemic) = > 10 µM

Entry CCOC(=O)[C@]1(c2ccccc2)N=C(c2ccccc2)N(Cc2ccc(OC)cc2)[C@@H]1c1ccccc1 (racemic) , CC50 at 24 h reported as > 10 µM

Measured CC50 at 24 h, CCOC(=O)[C@]1(c2ccccc2)N=C(c2ccccc2)N(S(=O)(=O)c2ccc(C)cc2)[C@@H]1c1ccccc1 (racemic) : > 10 µM

Record COC(=O)[C@]1(c2ccccc2)N=C(c2ccccc2)N(Cc2ccccc2)[C@@H]1c1ccccc1 (racemic) , field CC50 at 24 h: > 10 µM

# compound CCOC(=O)[C@]1(c2ccccc2)N=C(c2ccccc2)N(Cc2ccc(Br)cc2)[C@@H]1c1ccccc1 (racemic) ; its CC50 at 24 h = > 10 µM
